Data origin: patent US20210292393A1

Target: SARS-CoV-2 spike (S) protein, full length, wild type, expressed on the surface of CHO cells (SARS-CoV-2, UniProt P0DTC2 14-1273)
endpoint: median fluorescence fold over isotype (fold over isotype)
Numbers only; they are read as fold over isotype.

binder	endpoint	observed.value
antibody 323 (antibody, V domains shown) VH: QVQLVQSGAEVKKPGASVKVSCKVSGYTLTELSMHWVRQAPGKGLEWMGGFDPEDGETIYAQKFQGRVTMTEDTSTDTAYMELSSLRSEDTAVYYCATSTIFAPGGWFDPWGQGTLVTVSS VL: QSALTQPASVSGSPGQSITISCTGTSSDVGSYNLVSWYQQHPGKAPKLMIYEVSKRPSGVSNRFSGSKSGNTASLTISGLQAEDEADYYCCSYAGSTHYVFGTGTKVTVL	median fluorescence fold over isotype	20.6
antibody 365 (antibody, V domains shown) VH: QVQLVESGGGVVQPGRSLRLSCAASGFNLSSYAMHWVRQASGKGLEWVSLISYDGSIKYYTDSVKGRFTVSGDNSKNTLFLQMNSLRPDDSALYYCVRGGVSGPNSFDMWGQGTTVTVSS VL: DVVMTQSPLSLPVTLGQPASISCRSSQSLVYSDGNTYVNWFQQRPGQSPRRLIYKVSIRASGVPDRFSGSGSGTDFALKISRVEAEDVGVYYCMQGTHWPVTFGQGTKVEIK	median fluorescence fold over isotype	10.7

// switching to the query binder
Report measured median fluorescence fold over isotype; entry is antibody 326 (antibody, V domains shown) VH: QITLKESGPTLVKPTQTLTLTCTFSGFSLNTSGVGVGWIRQPPGKALEWLSLIFWNDDKRYSPSLRSRLTITKDTSKNQVVLTMTNMDPVDTATYFCAHRNSGWSLKFDSWGQGSLVTVSA VL: DIQMTQSPSSVSASVGDRVTITCRARQGISSWLVWYQQKPGKAPKLLIFGASSLQSGVPSRFNASGTGTEFTLTISSLQPEDFATYYCQQADSFPITFGQGTRLEIK 10.1
